Target Or System: HTR1A (Homo sapiens)
Sequence (P08908 whole entry): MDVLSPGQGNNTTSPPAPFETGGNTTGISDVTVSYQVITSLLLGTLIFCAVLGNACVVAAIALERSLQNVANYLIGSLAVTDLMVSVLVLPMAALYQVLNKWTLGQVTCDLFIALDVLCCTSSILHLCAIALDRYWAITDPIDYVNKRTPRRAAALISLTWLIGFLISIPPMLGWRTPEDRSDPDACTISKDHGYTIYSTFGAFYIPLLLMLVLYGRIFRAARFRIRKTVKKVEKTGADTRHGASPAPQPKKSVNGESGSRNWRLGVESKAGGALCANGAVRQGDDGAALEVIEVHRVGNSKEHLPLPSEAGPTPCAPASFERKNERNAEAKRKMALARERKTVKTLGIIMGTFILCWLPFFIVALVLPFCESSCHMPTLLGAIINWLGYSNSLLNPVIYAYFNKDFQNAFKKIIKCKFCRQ
Experiment: SAFETYScan GPCR cAMP, Antagonist
Test Context: read-out: RC50 (IC50)
Measured Metric: IC50

[
  {
    "Molecule": "C[C@H]1C[C@@H](O)CN(c2ncc(Cl)c(Nc3ccc4c(c3)c3c(c(=O)n4C)OCC(F)(F)[C@H](C4CC4)N3)n2)C1 [12a CCT373566]",
    "Observed Result": "> 10 µM"
  }
]

====

Target Or System: HTR2B (Homo sapiens)
Sequence (P41595 whole entry): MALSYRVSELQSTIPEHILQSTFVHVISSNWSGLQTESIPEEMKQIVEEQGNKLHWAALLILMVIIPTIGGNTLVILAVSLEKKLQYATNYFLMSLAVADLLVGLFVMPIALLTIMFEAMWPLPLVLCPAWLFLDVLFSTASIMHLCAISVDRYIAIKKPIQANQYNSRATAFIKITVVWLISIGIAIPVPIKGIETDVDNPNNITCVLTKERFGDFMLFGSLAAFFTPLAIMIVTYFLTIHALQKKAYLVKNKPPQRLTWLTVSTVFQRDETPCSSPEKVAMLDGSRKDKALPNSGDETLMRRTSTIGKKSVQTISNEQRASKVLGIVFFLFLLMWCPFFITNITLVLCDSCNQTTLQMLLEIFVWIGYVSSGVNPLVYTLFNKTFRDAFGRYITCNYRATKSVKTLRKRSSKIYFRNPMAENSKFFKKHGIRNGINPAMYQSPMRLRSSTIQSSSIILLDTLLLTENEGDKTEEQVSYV
Experiment: SAFETYScan GPCR Calcium Flux, Antagonist
Test Context: read-out: RC50 (IC50)
Text: Supplement jm1c02175_si_002.xlsx, sheet "SAFETYScan" | column: RC50 (uM); Max Response
pIC50: −log10 of the molar value.

[
  {
    "Compound": "C[C@H]1C[C@@H](O)CN(c2ncc(Cl)c(Nc3ccc4c(c3)c3c(c(=O)n4C)OCC(F)(F)[C@H](C4CC4)N3)n2)C1 [12a CCT373566]",
    "pIC50": "< 5.00"
  }
]
